Values from patent US8835467B2

Catalogue of inhibition at 5000 µM readings, one per entry.
- TARGET_UNDER_TEST: Yeast SIR2p (Saccharomyces cerevisiae, UniProt P06700)
- Construct: made in house
- Sequence (P06700 whole entry): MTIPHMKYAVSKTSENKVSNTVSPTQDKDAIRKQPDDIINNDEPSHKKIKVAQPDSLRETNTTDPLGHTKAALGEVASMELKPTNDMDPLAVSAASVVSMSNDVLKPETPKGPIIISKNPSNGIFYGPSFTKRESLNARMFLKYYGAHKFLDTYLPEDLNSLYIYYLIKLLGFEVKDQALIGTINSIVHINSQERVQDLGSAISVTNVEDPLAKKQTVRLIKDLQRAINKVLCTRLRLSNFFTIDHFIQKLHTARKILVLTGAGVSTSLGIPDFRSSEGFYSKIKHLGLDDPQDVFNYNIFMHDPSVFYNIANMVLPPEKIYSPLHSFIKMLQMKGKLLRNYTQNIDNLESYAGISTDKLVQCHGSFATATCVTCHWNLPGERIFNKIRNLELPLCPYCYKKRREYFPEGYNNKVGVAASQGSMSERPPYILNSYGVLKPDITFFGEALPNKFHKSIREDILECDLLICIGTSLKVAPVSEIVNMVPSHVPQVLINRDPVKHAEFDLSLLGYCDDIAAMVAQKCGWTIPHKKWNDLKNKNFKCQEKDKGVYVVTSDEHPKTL
- TEST_METHOD_NOTES: SIR2 deacetylation assay (p53 peptide, HPLC of ADPR and 3′-O-acetyl-ADPR)
- Assay type: biochemical
Record the value in %, omitting the unit from your answer.

# count of solved cases: 3
COMPOUND | TARGET_UNDER_TEST | inhibition at 5000 µM, %
NC(=O)c1ccncc1 [Isonicotinamide] | Yeast SIR2p (Saccharomyces cerevisiae, UniProt P06700) | 0
NC(=S)c1cccnc1 [Thionicotinamide] | Yeast SIR2p (Saccharomyces cerevisiae, UniProt P06700) | 15
NC(=O)c1cnccn1 [Pyrazinamide] | Yeast SIR2p (Saccharomyces cerevisiae, UniProt P06700) | 1

Output inhibition at 5000 µM of NC(=O)c1ccccc1 [Benzamide]
0

---

- TARGET_UNDER_TEST: Yeast SIR2p (Saccharomyces cerevisiae, UniProt P06700)
- Construct: made in house
- TEST_METHOD_NOTES: SIR2 deacetylation assay (p53 peptide, HPLC of ADPR and 3′-O-acetyl-ADPR)
- Type: biochemical
PARAMETER_MEASURED: Ki (µM)
Your answer is read as µM, so omit the unit and give the number.

Using the record for NC(=O)c1cccnc1 [nicotinamide] , state its measured Ki.
120

---

- TARGET_UNDER_TEST: Yeast SIR2p (Saccharomyces cerevisiae)
- Construct: made in house
- TEST_METHOD_NOTES: SIR2 nicotinamide base-exchange assay (p53 peptide, HPLC/14C)
- Format: biochemical
- Method: After 2 hours, aliquots of 10 μL removed at 0, 30, 60, 90 and 120 min. Each aliquot was combined with 50 μL 50 mM ammonium acetate pH 5.0 to quench and assayed by HPLC for deacetylation products and NAD^+. The chromatograms (260 nm) were obtained using 50 mM ammonium acetate pH 5.0 as eluant on a semi-preparative Waters C-18 column (2.0 mL/min flow rate). Peaks for ADPR and 3′-O-Acetyl-ADPR were quantified by integration. The peak for NAD^+ was collected and radiation counted.
pKi: −log10 of the molar value.
PARAMETER_MEASURED: pKi

State its pKi: NC(=O)c1cccnc1 [nicotinamide]
< 2.10

---

Measured inhibition at 5000 µM, listed per entry for reference.
- TARGET_UNDER_TEST: Mouse SIR2 enzyme (SIR2α) (Mus musculus, UniProt Q923E4)
- Construct: purchased Upstate Group
- Sequence (Q923E4 1-737): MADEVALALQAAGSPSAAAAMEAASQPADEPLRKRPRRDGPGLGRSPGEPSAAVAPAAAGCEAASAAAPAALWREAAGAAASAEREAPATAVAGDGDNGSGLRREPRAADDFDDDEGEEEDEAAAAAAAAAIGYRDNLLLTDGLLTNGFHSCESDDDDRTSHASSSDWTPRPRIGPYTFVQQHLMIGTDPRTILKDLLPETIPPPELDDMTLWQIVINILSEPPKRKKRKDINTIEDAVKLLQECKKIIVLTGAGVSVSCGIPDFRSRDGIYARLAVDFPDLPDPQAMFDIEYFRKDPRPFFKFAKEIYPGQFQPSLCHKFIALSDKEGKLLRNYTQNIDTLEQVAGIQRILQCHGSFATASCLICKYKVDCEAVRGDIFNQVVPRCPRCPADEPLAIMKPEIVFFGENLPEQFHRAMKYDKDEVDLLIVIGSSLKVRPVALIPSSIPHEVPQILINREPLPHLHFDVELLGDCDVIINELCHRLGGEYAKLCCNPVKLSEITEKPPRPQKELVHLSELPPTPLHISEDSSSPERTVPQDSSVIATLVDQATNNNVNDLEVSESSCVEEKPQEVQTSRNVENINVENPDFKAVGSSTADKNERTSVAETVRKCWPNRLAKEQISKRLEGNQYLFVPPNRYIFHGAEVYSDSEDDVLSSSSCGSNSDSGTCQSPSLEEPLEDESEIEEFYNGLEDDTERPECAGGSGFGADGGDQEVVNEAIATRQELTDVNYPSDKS
- TEST_METHOD_NOTES: SIR2 deacetylation assay (p53 peptide, HPLC of ADPR and 3′-O-acetyl-ADPR)
- Format: biochemical
Your answer should be a plain number; it is taken to be in %.

COMPOUND | TARGET_UNDER_TEST | ENDPOINT_UNIT | inhibition at 5000 µM
NC(=S)c1cccnc1 [Thionicotinamide] | Mouse SIR2 enzyme (SIR2α) (Mus musculus, UniProt Q923E4) | % | 16
NC(=O)c1cnccn1 [Pyrazinamide] | Mouse SIR2 enzyme (SIR2α) (Mus musculus, UniProt Q923E4) | % | 1
NC(=O)c1ccncc1 [Isonicotinamide] | Mouse SIR2 enzyme (SIR2α) (Mus musculus, UniProt Q923E4) | % | 18

Kindly review the next compound as well.
Identify the reported inhibition at 5000 µM for the following entry. NC(=O)c1ccccc1 [Benzamide]
44
